Exercise: for every item that follows, state its recorded pIC50.
system: DU145, hormone-independent human prostate carcinoma cells; test: Proliferation assay (crystal violet), DU145; format: cell-based; details: DU145 cells, Method 3; read-out: Inhibition of DU145 cell proliferation, IC50
Keep it numeric: pIC50 is minus log10 of the concentration in mol/L.

For C#CCOc1cc(F)ccc1-c1ncnc(Nc2cccc(CS(C)(=N)=O)c2)n1 (single isomer, unassigned) the compound record lists pIC50 as 6.42

For COc1cc(F)ccc1-c1ncnc(Nc2cc(F)cc(CS(C)(=O)=NC#N)c2)n1 (single isomer, unassigned) the compound record lists pIC50 as 6.96

For CC#CCOc1cc(F)ccc1-c1ncnc(Nc2cccc(CS(C)(=N)=O)c2)n1 (single isomer, unassigned) [Example 75] the compound record lists pIC50 as 6.77

For CS(=N)(=O)Cc1cccc(Nc2ncnc(-c3ccc(F)cc3OCc3ccnc(F)c3)n2)c1 (single isomer, unassigned) the compound record lists pIC50 as 6.74

For CS(=N)(=O)Cc1cccc(Nc2ncnc(-c3ccc(F)cc3OCc3ccc(F)cc3)n2)c1 (single isomer, unassigned) the compound record lists pIC50 as 6.40

For CC#CCOc1cc(F)ccc1-c1ncnc(Nc2cccc(CS(C)(=N)=O)c2)n1 (single isomer, unassigned) [Example 74] the compound record lists pIC50 as 6.44

###

target: CDK9/CycT1 (Homo sapiens (Human), UniProt P50750); assay: CDK9/CycT1 kinase assay (TR-FRET); format: biochemical; details: Method 1
Sequence (P50750 whole entry): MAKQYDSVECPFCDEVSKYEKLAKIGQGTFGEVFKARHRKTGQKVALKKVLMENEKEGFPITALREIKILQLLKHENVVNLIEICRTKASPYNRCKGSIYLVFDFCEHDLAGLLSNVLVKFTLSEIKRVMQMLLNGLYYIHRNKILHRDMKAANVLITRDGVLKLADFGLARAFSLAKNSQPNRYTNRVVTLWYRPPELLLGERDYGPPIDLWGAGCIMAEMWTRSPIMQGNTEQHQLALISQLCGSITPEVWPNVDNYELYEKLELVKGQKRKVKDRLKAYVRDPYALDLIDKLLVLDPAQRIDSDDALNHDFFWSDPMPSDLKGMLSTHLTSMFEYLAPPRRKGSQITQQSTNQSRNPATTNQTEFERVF
Sequence (O60563 whole entry partner): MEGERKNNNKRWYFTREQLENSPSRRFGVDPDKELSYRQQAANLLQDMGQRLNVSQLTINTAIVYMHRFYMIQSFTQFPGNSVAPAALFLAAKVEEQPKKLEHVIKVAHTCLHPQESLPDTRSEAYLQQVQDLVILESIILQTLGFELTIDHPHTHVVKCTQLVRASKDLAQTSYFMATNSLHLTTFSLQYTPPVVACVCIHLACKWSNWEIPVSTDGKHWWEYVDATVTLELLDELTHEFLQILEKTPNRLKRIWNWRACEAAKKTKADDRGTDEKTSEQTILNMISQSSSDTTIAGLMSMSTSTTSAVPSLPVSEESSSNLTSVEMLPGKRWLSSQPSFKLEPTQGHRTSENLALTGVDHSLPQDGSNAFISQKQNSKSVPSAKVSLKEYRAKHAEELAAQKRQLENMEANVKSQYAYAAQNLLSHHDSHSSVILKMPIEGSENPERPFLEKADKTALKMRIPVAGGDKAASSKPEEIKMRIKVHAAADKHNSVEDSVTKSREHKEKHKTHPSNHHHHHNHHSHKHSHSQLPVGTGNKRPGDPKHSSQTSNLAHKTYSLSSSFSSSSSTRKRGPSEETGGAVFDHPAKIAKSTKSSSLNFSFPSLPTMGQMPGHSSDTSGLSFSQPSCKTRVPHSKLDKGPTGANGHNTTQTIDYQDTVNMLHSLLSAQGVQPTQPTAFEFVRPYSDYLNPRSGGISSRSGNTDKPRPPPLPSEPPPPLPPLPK
quantity: IC50 (nM)
The answer is to be given in nM; state only the numeric part.

For CS(=N)(=O)Cc1cccc(Nc2ncnc(-c3ccc(F)cc3OCc3ccccc3)n2)c1 (racemic) [Example 6] the compound record lists IC50 as 3

For CCOC(=O)N=S(C)(=O)Cc1cccc(Nc2ncnc(-c3ccc(Cl)cc3OC)n2)c1 (racemic) [Example 11] the compound record lists IC50 as 23

For CCOC(=O)N=S(C)(=O)Cc1cccc(Nc2ncnc(-c3cccc4c3OCCC4)n2)c1 (racemic) [Example 29] the compound record lists IC50 as 13

For C=C(C)COc1cc(F)ccc1-c1ncnc(Nc2cccc(CS(C)(=N)=O)c2)n1 (racemic) [Example 99] the compound record lists IC50 as 2

For CS(=N)(=O)Cc1cccc(Nc2ncnc(-c3ccc(F)cc3OCc3cccnc3)n2)c1 (racemic) [Example 66] the compound record lists IC50 as 24

For COc1ccccc1-c1ncnc(Nc2cccc(CS(C)(=N)=O)c2)n1 (single isomer, unassigned) [Example 28] the compound record lists IC50 as 89

For CCCOc1cc(F)ccc1-c1ncnc(Nc2cccc(CS(C)(=N)=O)c2)n1 (racemic) [Example 91] the compound record lists IC50 as 29

###

molecular target: CDK9/CycT1 (Homo sapiens (Human), UniProt P50750); experiment: CDK9/CycT1 kinase assay (TR-FRET); format: biochemical; settings: Method 1
Exercise: for every item that follows, state its recorded pIC50.
Keep it numeric: pIC50 is minus log10 of the concentration in mol/L.

For COc1ccccc1-c1ncnc(Nc2cccc(CS(C)(=N)=O)c2)n1 (single isomer, unassigned) [Example 27] the compound record lists pIC50 as 7.00

For CCOC(=O)N=S(C)(=O)Cc1cccc(Nc2ncnc(-c3cccc(Cl)c3OC)n2)c1 (racemic) the compound record lists pIC50 as 6.09

For CS(=N)(=O)Cc1cccc(Nc2ncnc(-c3ccc(F)cc3OCc3cccc(F)c3)n2)c1 (racemic) the compound record lists pIC50 as 8.70

For COc1cc(F)ccc1-c1ncnc(Nc2ccc(Cl)c(CS(C)(=N)=O)c2)n1 (single isomer, unassigned) [Example 59.b] the compound record lists pIC50 as 7.48

For CS(=N)(=O)Cc1cccc(Nc2ncnc(-c3ccc(F)cc3OCc3cc(F)cc(F)c3F)n2)c1 (racemic) the compound record lists pIC50 as 8.40

For CCOC(=O)N=S(C)(=O)Cc1cccc(Nc2ncnc(-c3cccc4c3OCC4)n2)c1 (racemic) the compound record lists pIC50 as 7.68

For CC#CCOc1cc(F)ccc1-c1ncnc(Nc2cccc(CS(C)(=N)=O)c2)n1 (racemic) [Example 73] the compound record lists pIC50 as 8.10

For CC(Oc1cc(F)ccc1-c1ncnc(Nc2cccc(CS(C)(=N)=O)c2)n1)c1ccc(F)cc1 (stereo not shown) the compound record lists pIC50 as 7.66

For COc1cc(F)ccc1-c1ncnc(Nc2ccc(Cl)c(CS(C)(=N)=O)c2)n1 (single isomer, unassigned) [Example 59.a] the compound record lists pIC50 as 7.60

For C#CCOc1cc(F)ccc1-c1ncnc(Nc2cccc(CS(C)(=N)=O)c2)n1 (racemic) [Example 77] the compound record lists pIC50 as 7.82

For CCOC(=O)N=S(C)(=O)Cc1cccc(Nc2ncnc(-c3cc(F)c(F)cc3OC)n2)c1 (racemic) the compound record lists pIC50 as 8.10

For CS(=N)(=O)Cc1cccc(Nc2ncnc(-c3ccc(F)cc3OCCCC(F)(F)F)n2)c1 (racemic) the compound record lists pIC50 as 8.22

For COc1cc(F)ccc1-c1ncnc(Nc2cccc(CS(C)(=O)=NC(C)=O)c2)n1 (racemic) the compound record lists pIC50 as 7.96

For COc1cc(F)ccc1-c1ncnc(Nc2cc(F)cc(CS(C)(=O)=NC#N)c2)n1 (single isomer, unassigned) [Example 71] the compound record lists pIC50 as 8.22

For CS(=N)(=O)Cc1cccc(Nc2ncnc(-c3ccc(F)cc3OCc3cc(F)c(F)cc3F)n2)c1 (racemic) the compound record lists pIC50 as 8.15

For COc1cc(Cl)ccc1-c1ncnc(Nc2cccc(CS(C)(=N)=O)c2)n1 (single isomer, unassigned) [Example 14] the compound record lists pIC50 as 6.80

For CS(=N)(=O)Cc1cccc(Nc2ncnc(-c3ccc(F)cc3OCc3ccc(C(F)(F)F)cc3)n2)c1 (racemic) the compound record lists pIC50 as 8.10

For COc1cc(Cl)ccc1-c1ncnc(Nc2cccc(CS(C)(=N)=O)c2)n1 (single isomer, unassigned) [Example 13] the compound record lists pIC50 as 7.03

For COc1cc(F)ccc1-c1ncnc(Nc2cccc(CS(C)(=O)=NC#N)c2)n1 (racemic) [Example 48] the compound record lists pIC50 as 7.89

For CCOC(=O)N=S(C)(=O)Cc1cccc(Nc2ncnc(-c3cc(F)ccc3OC)n2)c1 (racemic) the compound record lists pIC50 as 7.66

For CS(=N)(=O)Cc1cccc(Nc2ncnc(-c3ccc(F)cc3OCc3ccnc(F)c3)n2)c1 (single isomer, unassigned) [Example 84] the compound record lists pIC50 as 8.52

For CS(=N)(=O)Cc1cccc(Nc2ncnc(-c3ccc(F)cc3OCc3ccc(F)c(F)c3)n2)c1 (racemic) the compound record lists pIC50 as 7.89

For CS(=N)(=O)Cc1cccc(Nc2ncnc(-c3ccc(F)cc3OCc3ccc(F)cc3)n2)c1 (single isomer, unassigned) [Example 56.a] the compound record lists pIC50 as 8.40

For CS(=N)(=O)Cc1cccc(Nc2ncnc(-c3ccccc3OCc3ccc(Cl)c(Cl)c3)n2)c1 (racemic) the compound record lists pIC50 as 7.82

For CNC(=O)N=S(C)(=O)Cc1cccc(Nc2ncnc(-c3ccc(F)cc3OC)n2)c1 (single isomer, unassigned; (+)) [Example 17] the compound record lists pIC50 as 7.85

For CS(=N)(=O)Cc1cccc(Nc2ncnc(-c3ccc(F)cc3OCc3ccnc(F)c3)n2)c1 (single isomer, unassigned) [Example 83] the compound record lists pIC50 as 8.70

For CS(=N)(=O)Cc1cccc(Nc2ncnc(-c3ccc(F)cc3OCc3cc(F)cc(C(F)(F)F)c3)n2)c1 (racemic) the compound record lists pIC50 as 8.40

For CS(=N)(=O)Cc1cccc(Nc2ncnc(-c3cccc4c3OC(F)(F)O4)n2)c1 (racemic) the compound record lists pIC50 as 7.23

###

molecular target: CDK9/CycT1 (Homo sapiens (Human), UniProt P50750); assay: CDK9/CycT1 kinase assay (TR-FRET); format: biochemical; details: Method 1
Exercise: for every item that follows, state its recorded pIC50.
Keep it numeric: pIC50 is minus log10 of the concentration in mol/L.

For COc1cc(F)ccc1-c1ncnc(Nc2cc(Cl)cc(CS(C)(=N)=O)c2)n1 (racemic) [Example 64] the compound record lists pIC50 as 7.82

For COc1cc(F)ccc1-c1ncnc(Nc2cc(F)c(F)c(CS(C)(=O)=NC#N)c2)n1 (racemic) [Example 105] the compound record lists pIC50 as 8.52

For CS(=N)(=O)Cc1cccc(Nc2ncnc(-c3ccc(F)cc3OCc3ccc(Cl)cc3)n2)c1 (racemic) [Example 87] the compound record lists pIC50 as 8.52

For CCOc1cc(F)ccc1-c1ncnc(Nc2cccc(CS(C)(=N)=O)c2)n1 (racemic) [Example 88] the compound record lists pIC50 as 7.96

For CS(=N)(=O)Cc1cccc(Nc2ncnc(-c3ccc(F)cc3OCc3cccc(Cl)c3)n2)c1 (racemic) [Example 92] the compound record lists pIC50 as 8.40

For CS(=N)(=O)Cc1cccc(Nc2ncnc(-c3ccccc3OCc3ccc(F)cc3)n2)c1 (racemic) [Example 43] the compound record lists pIC50 as 8.05

For COc1cc(F)ccc1-c1ncnc(Nc2cccc(CS(=O)(=NC#N)C3CC3)c2)n1 (racemic) [Example 113] the compound record lists pIC50 as 8.70

For CS(=N)(=O)Cc1cccc(Nc2ncnc(-c3ccc(F)cc3OCc3cc(F)c(F)c(F)c3)n2)c1 (racemic) [Example 104] the compound record lists pIC50 as 8.70

For CS(=N)(=O)Cc1cccc(Nc2ncnc(-c3ccc(F)cc3OCc3cc(F)cc(Cl)c3)n2)c1 (racemic) [Example 94] the compound record lists pIC50 as 8.52

For COc1cc(F)ccc1-c1ncnc(Nc2cccc(CS(C)(=O)=NC#N)c2)n1 (single isomer, unassigned) [Example 50] the compound record lists pIC50 as 8.15

For COc1cc(F)c(F)cc1-c1ncnc(Nc2cccc(CS(C)(=N)=O)c2)n1 (racemic) [Example 10] the compound record lists pIC50 as 7.55

For CS(=N)(=O)Cc1cccc(Nc2ncnc(-c3ccc(F)cc3OCCC3CCOCC3)n2)c1 (racemic) [Example 57] the compound record lists pIC50 as 6.43

For C#CCOc1cc(F)ccc1-c1ncnc(Nc2cccc(CS(C)(=N)=O)c2)n1 (single isomer, unassigned) [Example 79] the compound record lists pIC50 as 8.30

For CS(=N)(=O)Cc1cccc(Nc2ncnc(-c3ccc(F)cc3OCCC3CC3)n2)c1 (racemic) [Example 76] the compound record lists pIC50 as 7.52

For CS(=N)(=O)Cc1cccc(Nc2ncnc(-c3cccc4c3OCC4)n2)c1 (single isomer, unassigned) [Example 36] the compound record lists pIC50 as 7.30

For CS(=N)(=O)Cc1cccc(Nc2ncnc(-c3cccc4c3OCC4)n2)c1 (single isomer, unassigned) [Example 35] the compound record lists pIC50 as 7.19

For CS(=N)(=O)Cc1cccc(Nc2ncnc(-c3ccc(F)cc3OCc3ccc(F)cc3)n2)c1 (single isomer, unassigned) [Example 56.b] the compound record lists pIC50 as 8.30

For COc1cc(F)ccc1-c1ncnc(Nc2cccc(CS(C)(=O)=NC#N)c2)n1 (single isomer, unassigned) [Example 49] the compound record lists pIC50 as 8.15

For CCOC(=O)N=S(C)(=O)Cc1cccc(Nc2ncnc(-c3ccccc3OC)n2)c1 (racemic) [Example 25] the compound record lists pIC50 as 7.55

For COc1ccc(F)cc1-c1ncnc(Nc2cccc(CS(C)(=N)=O)c2)n1 (single isomer, unassigned) [Example 22] the compound record lists pIC50 as 7.04

For CCOC(=O)N=S(C)(=O)Cc1cccc(Nc2ncnc(-c3cccc4c3OCCO4)n2)c1 (racemic) [Example 37] the compound record lists pIC50 as 8.05

For CS(=N)(=O)Cc1cccc(Nc2ncnc(-c3cccc4c3OCCO4)n2)c1 (single isomer, unassigned) [Example 39] the compound record lists pIC50 as 7.54

For CS(=N)(=O)Cc1cccc(Nc2ncnc(-c3ccc(F)cc3OCc3ccc(F)c(Cl)c3)n2)c1 (racemic) [Example 97] the compound record lists pIC50 as 8.52

For COc1cc(F)ccc1-c1ncnc(Nc2cccc(CS(C)(=O)=NS(C)(=O)=O)c2)n1 (racemic) [Example 44] the compound record lists pIC50 as 7.70

For CS(=N)(=O)Cc1cccc(Nc2ncnc(-c3ccc(F)cc3OCC(F)F)n2)c1 (racemic) [Example 95] the compound record lists pIC50 as 7.68

For CCOC(=O)N=S(C)(=O)Cc1cccc(Nc2ncnc(-c3cc(F)ccc3OCC3CCOCC3)n2)c1 (racemic) [Example 46] the compound record lists pIC50 as 6.92
